Ref: patent US20260078103A1

- Test system: SKBR3 cells express WT PI3Ka
- test: In vitro cell proliferation, SKBR3 cells (CellTiter-Glo)
- Assay type: cell-based
- condition.set: Homo sapiens, SK-BR-3, 72 h, inhibition of proliferation
result.type: EC50

Notebook: Cc1cc([C@@H](C)Nc2ccccc2C(=O)O)c2cc(N3CCN(C)C(C(F)(F)F)C3)n(C)c(=O)c2c1 (single isomer, unassigned) [Example 301] , EC50 read as > 15 µM

Notebook: C[C@@H](Nc1ccccc1C(=O)O)c1cc(F)cc2c(=O)n(C)c(C3C[C@@H]3CF)c(F)c12 (single isomer, unassigned) [Example 577] , EC50 read as > 15 µM

Notebook: C[C@@H](Nc1ccccc1C(=O)O)c1cc(F)cc2c(=O)n(C)c(-c3cnc(C4(CC(F)(F)F)CC4)nc3)cc12 [Example 579] , EC50 read as 2 to 15 µM

Notebook: C[C@@H](Nc1ccccc1C(=O)O)c1cc(F)cc2c(=O)n(C)c(N3CCN(CC(F)(F)F)CC3)cc12 [Example 316] , EC50 read as > 15 µM

Notebook: Cc1cc([C@@H](C)Nc2ccccc2C(=O)O)c2cc(N3CC[C@@]4(CCCN(CC(F)(F)F)C4)C3)n(C)c(=O)c2c1 [Example 98] , EC50 read as > 15 µM

Notebook: COC[C@@H]1CC1c1cc2c([C@@H](C)Nc3ccccc3C(=O)O)cc(C)cc2c(=O)n1C (some centres unmarked) [Example 304] , EC50 read as > 15 µM

Notebook: Cc1cc([C@@H](C)Nc2ccccc2C(=O)O)c2c(F)c(C3CC3)n(C)c(=O)c2c1 [Example 529] , EC50 read as > 15 µM

Notebook: CCOc1ncc(-c2cc3c([C@@H](C)Nc4cccc(F)c4C(=O)O)cc(C)cc3c(=O)n2C)s1 [Example 347] , EC50 read as > 15 µM

Notebook: COCCC(=O)N1CCN(c2cc3c(C(C)Nc4ccccc4C(=O)O)cc(C)cc3c(=O)n2C)CC1 (centres unmarked) [Example 95] , EC50 read as > 15 µM

Notebook: Cc1cc([C@@H](C)Nc2ccccc2C(=O)O)c2cc(-c3cnc(C4CC4)s3)n(C)c(=O)c2c1 [Example 239] , EC50 read as > 15 µM

Notebook: Cc1cc(C(C)Nc2ccccc2C(=O)O)c2cc(N3C[C@@H]4[C@@H](C#N)[C@@H]4C3)n(C)c(=O)c2c1 (some centres unmarked) [Example 14] , EC50 read as > 15 µM

Notebook: Cc1cc([C@@H](C)Nc2ccccc2C(=O)O)c2cc(-c3ccc(C(C)(C)F)nc3)n(C)c(=O)c2c1 [Example 225] , EC50 read as > 15 µM

Notebook: C[C@@H](Nc1cccc(F)c1C(=O)O)c1cc(F)cc2c(=O)n(C)c(N3CC(F)(F)C3)cc12 [Example 412] , EC50 read as > 15 µM

Notebook: Cc1ncc(F)cc1-c1ncc(-c2cc3c([C@@H](C)Nc4cccc(F)c4C(=O)O)cc(F)cc3c(=O)n2C)cc1F [Example 440] , EC50 read as > 15 µM
